Target: human tissue factor (TF), membrane-bound on cells (human, UniProt P13726 33-295)
Assay: cell-based or functional assay
The reader will find reported EC50 of ADCC, A431 cells values listed item by item below.
Field: numeric (nM). Do not append units.

{"binder": "anti-TF HuMab 101 (antibody, V domains shown, Human monoclonal antibody from HuMab mice) VH: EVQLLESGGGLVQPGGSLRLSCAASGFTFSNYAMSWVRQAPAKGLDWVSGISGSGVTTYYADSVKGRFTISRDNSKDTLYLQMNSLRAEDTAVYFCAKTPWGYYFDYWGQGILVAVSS VL: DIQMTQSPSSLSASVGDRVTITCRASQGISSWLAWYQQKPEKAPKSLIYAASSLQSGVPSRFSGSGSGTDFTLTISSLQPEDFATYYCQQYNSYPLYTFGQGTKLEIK", "unitSymbol": "nM", "measValue": 0.01}
{"binder": "anti-TF HuMab 111 (antibody, V domains shown, Human monoclonal antibody from HuMab mice) VH: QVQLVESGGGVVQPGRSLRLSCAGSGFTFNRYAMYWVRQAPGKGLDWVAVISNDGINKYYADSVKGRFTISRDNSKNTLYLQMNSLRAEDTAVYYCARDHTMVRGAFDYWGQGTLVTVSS VL: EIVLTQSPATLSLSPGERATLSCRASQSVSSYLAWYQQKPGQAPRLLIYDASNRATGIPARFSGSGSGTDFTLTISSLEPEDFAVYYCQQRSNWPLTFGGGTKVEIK", "unitSymbol": "nM", "measValue": 1.56}

Now for another entry.
According to the records, this binder anti-TF HuMab 098 (antibody, V domains shown, Human monoclonal antibody from HuMab mice; also called HuMab-TF-098; HuMab-TF-98) VH: QVQLVQSGAEVRKPGSSVKVSCKASGGSFNNYPIFWVRQAPGQGFEWMGRIIPILGITAYAQKFQGRVTITADKSTSTAYMELNSLRSEDTAVYYCAGGDDLDAFDIWGQGTMVSVSS VL: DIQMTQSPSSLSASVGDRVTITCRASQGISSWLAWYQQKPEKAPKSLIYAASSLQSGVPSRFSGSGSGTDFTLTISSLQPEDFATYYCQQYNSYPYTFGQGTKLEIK displays EC50 of ADCC, A431 cells of 0.07
